Active and inactive are the calls of the source.
// Mitogen-activated protein kinase kinase kinase kinase 5 (Homo sapiens) Kd records

>  <molecular.string>
CCc1nc(C(N)=O)c(Nc2ccc(N3CCC(N4CCN(C)CC4)CC3)c(OC)c2)nc1NC1CCOCC1

>  <Kd>
3.12 µM (active)

$$$$
>  <molecular.string>
C[C@@H]1COC(Nc2ccc3ncnc(Nc4ccc(OCc5nccs5)c(Cl)c4)c3c2)=N1

>  <Kd>
> 30 µM (inactive)

$$$$
>  <molecular.string>
NC(=O)c1ccc(N(C(N)=O)c2c(F)cccc2F)nc1-c1ccc(F)cc1F

>  <Kd>
> 30 µM (inactive)

$$$$
>  <molecular.string>
C[C@]1(O)C[C@@H](c2nc(-c3ccc4ccc(-c5ccccc5)nc4c3)c3c(N)nccn32)C1

>  <Kd>
0.614 µM (active)

$$$$
>  <molecular.string>
CC(C)(O)CC(=O)NCCn1ccc2ncnc(Nc3ccc(Oc4cccc(C(F)(F)F)c4)c(Cl)c3)c21

>  <Kd>
> 30 µM (inactive)

$$$$
>  <molecular.string>
S=C(NCc1ccc2c(c1)OCO2)N1CCN(c2ncnc3c2oc2ccccc23)CC1

>  <Kd>
> 30 µM (inactive)

$$$$
>  <molecular.string>
Cc1cc(C(=O)Nc2cc(Oc3ccc4nc(NC(=O)C5CC5)cn4n3)ccc2C)n(C)n1

>  <Kd>
> 30 µM (inactive)

$$$$
>  <molecular.string>
COc1cc(F)c(F)c(Nc2ccc(I)cc2F)c1NS(=O)(=O)C1(C[C@H](O)CO)CC1

>  <Kd>
> 30 µM (inactive)

$$$$
>  <molecular.string>
O=C(NC[C@H](O)CO)c1ccncc1Nc1ccc(I)cc1F

>  <Kd>
> 30 µM (inactive)

$$$$
>  <molecular.string>
CC[C@@](C)(Nc1ccnc(-c2c[nH]c3ncccc23)n1)C(=O)NCC(F)(F)F

>  <Kd>
> 30 µM (inactive)

$$$$
>  <molecular.string>
CCc1cc2c(cc1N1CCC(N3CCOCC3)CC1)C(C)(C)c1[nH]c3cc(C#N)ccc3c1C2=O

>  <Kd>
> 30 µM (inactive)

$$$$
>  <molecular.string>
CC(C)CC(=O)Nc1[nH]nc2c1CN(C(=O)C1CCN(C)CC1)C2(C)C

>  <Kd>
> 30 µM (inactive)

$$$$
>  <molecular.string>
NC[C@@](O)(c1ccc(Cl)cc1)c1ccc(-c2cn[nH]c2)cc1

>  <Kd>
> 30 µM (inactive)

$$$$
>  <molecular.string>
Cc1cc(Nc2nc(N[C@@H](C)c3ncc(F)cn3)ncc2Cl)n[nH]1

>  <Kd>
> 30 µM (inactive)

$$$$
>  <molecular.string>
COc1cc2ncnc(Nc3ccc(O)cc3)c2cc1OC

>  <Kd>
> 30 µM (inactive)

$$$$
>  <molecular.string>
Cn1cc(-c2[nH]c3cc(NC(=O)[C@H](N)C4CCCCC4)cc4c3c2C=NNC4=O)cn1

>  <Kd>
2.64 µM (active)

$$$$
>  <molecular.string>
COc1cc(Nc2ncc(F)c(Nc3ccc4c(n3)N(COP(=O)(O)O)C(=O)C(C)(C)O4)n2)cc(OC)c1OC

>  <Kd>
> 30 µM (inactive)

$$$$

Entry source: ChEMBL document CHEMBL3991601
